target: sGC α1/β1 heterodimer (Homo sapiens, UniProt Q02108+Q02153); construct: expressed in transfected cells; host or cells: CHO-K1 (clone #7, CHO-K1/sGC); assay: Cell-based sGC functional assay (CASA assay): cGMP generation in CHO-K1/sGC cells, HTRF detection; settings: CHO-K1, percent activation relative to standard Compound A in CHO-K1/sGC cells; read-out: % Act.
Sequence (Q02108 whole entry): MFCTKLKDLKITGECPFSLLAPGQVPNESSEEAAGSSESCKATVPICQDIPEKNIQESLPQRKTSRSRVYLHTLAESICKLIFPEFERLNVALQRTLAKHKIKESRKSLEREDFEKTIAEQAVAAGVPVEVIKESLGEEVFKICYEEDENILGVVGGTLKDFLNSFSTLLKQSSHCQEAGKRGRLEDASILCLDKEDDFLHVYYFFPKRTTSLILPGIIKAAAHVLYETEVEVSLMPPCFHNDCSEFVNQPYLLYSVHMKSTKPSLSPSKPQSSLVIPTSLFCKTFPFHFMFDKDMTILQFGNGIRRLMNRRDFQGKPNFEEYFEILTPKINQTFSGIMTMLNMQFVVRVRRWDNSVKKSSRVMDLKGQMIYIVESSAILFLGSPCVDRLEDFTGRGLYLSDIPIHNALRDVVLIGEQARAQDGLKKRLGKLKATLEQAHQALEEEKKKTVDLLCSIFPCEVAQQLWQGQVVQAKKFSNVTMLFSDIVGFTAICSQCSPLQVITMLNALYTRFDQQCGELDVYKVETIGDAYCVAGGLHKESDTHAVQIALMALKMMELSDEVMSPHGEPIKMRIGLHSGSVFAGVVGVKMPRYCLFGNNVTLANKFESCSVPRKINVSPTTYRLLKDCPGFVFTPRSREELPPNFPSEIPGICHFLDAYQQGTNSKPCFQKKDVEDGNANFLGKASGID
Sequence (Q02153 whole entry): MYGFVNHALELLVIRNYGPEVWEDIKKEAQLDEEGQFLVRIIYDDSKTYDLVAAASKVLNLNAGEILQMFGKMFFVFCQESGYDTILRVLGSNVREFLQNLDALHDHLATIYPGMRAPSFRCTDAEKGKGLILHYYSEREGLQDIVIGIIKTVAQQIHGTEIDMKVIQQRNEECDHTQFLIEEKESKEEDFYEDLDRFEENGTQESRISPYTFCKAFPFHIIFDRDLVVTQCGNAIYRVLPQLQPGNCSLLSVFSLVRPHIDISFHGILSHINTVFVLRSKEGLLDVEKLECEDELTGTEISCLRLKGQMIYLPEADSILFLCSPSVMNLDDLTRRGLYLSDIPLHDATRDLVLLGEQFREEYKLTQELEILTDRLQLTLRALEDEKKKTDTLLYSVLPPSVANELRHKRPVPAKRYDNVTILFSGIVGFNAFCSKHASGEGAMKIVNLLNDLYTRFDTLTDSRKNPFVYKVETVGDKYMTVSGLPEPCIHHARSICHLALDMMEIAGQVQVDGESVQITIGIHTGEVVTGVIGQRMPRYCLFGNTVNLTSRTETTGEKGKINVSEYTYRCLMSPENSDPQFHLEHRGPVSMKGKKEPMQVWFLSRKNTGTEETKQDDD
Metric Name: Emax (%)
Your answer should be a plain number; it is taken to be in %.

Example molecules with recorded Emax:
                                   molecule  units_label  value_reported
0  Cc1nnc(C2(C3CC3)C(=O)Nc3nc(-c4cn5ccnc5c(CCC(F)(F)C(F)(F)F)n4)nc(N)c32)s1 (stereo not shown) [Example 53A]            %             104
1  CC(C)Cc1nc(-c2nc(N)c3c(n2)NC(=O)C3(c2ccc(F)c(F)c2)C2CC2)cn2ccnc12 (stereo not shown) [Example 335A]            %             140
2  CC1(c2ccc(F)cc2)C(=O)Nc2nc(-c3cn4cc(C#N)nc4c(CCC(F)(F)C(F)(F)F)n3)nc(N)c21 (stereo not shown) [Example 275A]            %              98
3  CC1(c2ccc(Cl)cc2F)C(=O)Nc2nc(-c3cn4ccnc4c(CCC(F)(F)F)n3)nc(N)c21 (stereo not shown) [Example 179A]            %             129
4  CC1(c2ccc(Br)cc2)C(=O)Nc2nc(-c3cn4ccnc4cn3)nc(N)c21 (stereo not shown) [Example 135A]            %             148

Query: Notebook entry, sGC α1/β1 heterodimer (Homo sapiens, UniProt Q02108+Q02153) assay: Emax of CC1(c2ccc(F)cc2)C(=O)Nc2nc(-c3cn4cc(C(F)(F)F)nc4c(Cc4ccccc4F)n3)nc(N)c21 (stereo not shown) [Example 147A] = ?
Response: 120

Query: Query for sGC α1/β1 heterodimer (Homo sapiens, UniProt Q02108+Q02153): what Emax does the record show for CCCCc1nc(-c2nc(N)c3c(n2)NC(=O)C3(c2cccc(C(F)(F)F)n2)C2CC2)cn2ccnc12 (single isomer, unassigned) [Example 355A] ?
Response: 126

* * *

target: sGC α1/β1 heterodimer (Homo sapiens, UniProt Q02108+Q02153); assay: Cell-based sGC functional assay (CASA assay): cGMP generation in CHO-K1/sGC cells, HTRF detection; conditions: inflection point (IP) of cGMP generation in CHO-K1/sGC cells, 4P fit; activity expressed as percentage of Compound A
Metric Name: EC50 (µM)
Write down the numeric answer in µM and omit the unit.

Example entries and their recorded answers appear below.
In [3]: df
Out[3]:
                                   compound  units_label  value_reported
0  CC(C)Cc1nc(-c2nc(N)c3c(n2)NC(=O)C3(C)c2ccc(Cl)cc2)cn2ccnc12 (centres unmarked) [Example 20A]           µM           0.231
1  Nc1nc(-c2cn3ccnc3c(Cc3ccccc3F)n2)nc2c1C(c1ccc(Cl)cn1)(C1CC1)C(=O)N2 (single isomer, unassigned) [Example 110B]           µM           0.011
2  CCCc1nc(-c2nc(N)c3c(n2)NC(=O)C3(c2ccc(Cl)cc2F)C2CC2)cn2ccnc12 (centres unmarked) [Example 360A]           µM           0.043
3  CC1(c2ccc(Br)cc2)C(=O)Nc2nc(-c3cn4ccnc4cn3)nc(N)c21 (centres unmarked) [Example 135A]           µM           0.057

Query: Reported EC50 for Cn1cc(C2(C)C(=O)Nc3nc(-c4cn5ccnc5c(Cc5ccc(F)cc5)n4)nc(N)c32)cn1 (centres unmarked) [Example 88B] : what is it?
Response: 0.224

Query: Look at this compound and give its reported EC50. COc1ccc(C2(C)C(=O)Nc3nc(-c4cn5ccnc5c(CCCC(F)(F)F)n4)nc(N)c32)nc1 (centres unmarked) [Example 212B]
Response: 0.087

Query: Entry under review: CCCCc1nc(-c2nc(N)c3c(n2)NC(=O)C3(C)c2ccc(Cl)cn2)cn2cc(C)nc12 (centres unmarked) [Example 168A] . Reported EC50?
Response: 0.15

Query: I would be grateful if you could share the reported EC50 for CC(C)c1ccc(C2(C)C(=O)Nc3nc(-c4cn5ccnc5c(CCC(F)(F)C(F)(F)F)n4)nc(N)c32)cn1 (centres unmarked) [Example 251B] .
Response: 0.1

Query: For the compound Nc1nc(-c2cn3ccnc3c(CCC(F)(F)F)n2)nc2c1C(c1ccc(Cl)cn1)(C1CC1)C(=O)N2 (single isomer, unassigned) [Example 331B] , what EC50 is on record?
Response: 1.31

* * *

target: sGC α1/β1 heterodimer (Homo sapiens, UniProt Q02108+Q02153); construct: expressed in transfected cells; host or cells: CHO-K1 (clone #7, CHO-K1/sGC); test: Cell-based sGC functional assay (CASA assay): cGMP generation in CHO-K1/sGC cells, HTRF detection; settings: CHO-K1, percent activation relative to standard Compound A in CHO-K1/sGC cells; read-out: % Act.
Metric Name: Emax

Solved cases below.
>>> df
                                   molecule                         system_under_test  value_reported
0  CC1(c2ccc(F)cc2)C(=O)Nc2nc(-c3cn4ccnc4c(C4CCC4)n3)nc(N)c21 (centres unmarked) [Example 21A]  sGC α1/β1 heterodimer (Homo sapiens, UniProt Q02108+Q02153)             95%
1  Nc1nc(-c2cn3ccnc3c(CCC(F)(F)F)n2)nc2c1C(c1ccc(C(F)(F)F)cn1)(C1CC1)C(=O)N2 (centres unmarked) [Example 340A]  sGC α1/β1 heterodimer (Homo sapiens, UniProt Q02108+Q02153)            129%
2  CC(F)(F)c1ccc(C2(C)C(=O)Nc3nc(-c4cn5ccnc5c(CCC(F)(F)C(F)(F)F)n4)nc(N)c32)cn1 (single isomer, unassigned) [Example 379A]  sGC α1/β1 heterodimer (Homo sapiens, UniProt Q02108+Q02153)             87%
3  CC1(c2ccc(F)cn2)C(=O)Nc2nc(-c3cn4ccnc4c(Cc4ccc(F)cc4)n3)nc(N)c21 (centres unmarked) [Example 69B]  sGC α1/β1 heterodimer (Homo sapiens, UniProt Q02108+Q02153)            116%
4  CC(C)C1(C)C(=O)Nc2nc(-c3cn4ccnc4c(Cc4ccccc4)n3)nc(N)c21 (single isomer, unassigned) [Example 80B]  sGC α1/β1 heterodimer (Homo sapiens, UniProt Q02108+Q02153)             88%
5  CCCc1nc(-c2nc(N)c3c(n2)NC(=O)C3(C)c2ccc(Cl)cc2)cn2ccnc12 (single isomer, unassigned)  sGC α1/β1 heterodimer (Homo sapiens, UniProt Q02108+Q02153)             74%

Would you kindly look at the next entry?
Query: Recorded Emax of CC1(c2ccc(Cl)cn2)C(=O)Nc2nc(-c3cn4ccnc4c(CCC(F)(F)C(F)(F)F)n3)nc(N)c21 (centres unmarked) [Example 228A] , please.
Response: 108%

* * *

target: sGC α1/β1 heterodimer (Homo sapiens, UniProt Q02108+Q02153); assay: Cell-based sGC functional assay (CASA assay): cGMP generation in CHO-K1/sGC cells, HTRF detection; conditions: inflection point (IP) of cGMP generation in CHO-K1/sGC cells, 4P fit; activity expressed as percentage of Compound A
compounds and their reported pEC50
Scale for pEC50: -log10 of concentration given in mol/L; no unit attached.

Query: What pEC50 value was documented for this compound, CC1(C(=O)NC2CC2)C(=O)Nc2nc(-c3cn4cc(C(F)(F)F)nc4c(Cc4ccccc4F)n3)nc(N)c21 (stereo not shown) [Example 47B] ?
Response: 6.13

Query: Which pEC50 value belongs to Cc1nnc(C2(C)C(=O)Nc3nc(-c4cn5ccnc5c(Cc5ccc(F)cc5)n4)nc(N)c32)o1 (single isomer, unassigned) [Example 29A] ?
Response: 6.52

Query: Requested read-out: pEC50. Entry: CNc1nc(-c2cn3ccnc3c(CCC(F)(F)C(F)(F)F)n2)nc2c1C(C)(c1ccc(F)cc1)C(=O)N2 (stereo not shown) [Example 307A]
Response: 6.82

Query: Report pEC50 for CC1(c2ccc(Cl)cc2)C(=O)Nc2nc(-c3cn4ccnc4c(CCC(F)(F)C(F)(F)F)n3)nc(N)c21 (stereo not shown) [Example 238A] please.
Response: 7.15

Query: Record request: pEC50 value, item CC1(c2ccc(C(F)(F)F)cc2)C(=O)Nc2nc(-c3cn4ccnc4c(CCC(F)(F)C(F)(F)F)n3)nc(N)c21 (stereo not shown) [Example 237B]
Response: 7.28

Query: So what's the measured pEC50 for this one? CC1CN(c2nc(-c3cn4ccnc4c(CCC(F)(F)C(F)(F)F)n3)nc3c2C(C)(c2ccc(F)cc2)C(=O)N3)C1 (stereo not shown) [Example 305A]
Response: 6.83

Query: pEC50; subject: C#CC1(C)C(=O)Nc2nc(-c3cn4ccnc4c(CCC(F)(F)C(F)(F)F)n3)nc(N)c21 (stereo not shown) [Example 66A]
Response: 6.60

Data credit: patent US9796733B2
